test system: 786-0 complex spheroid viability; test: Anticancer human tumor 786-0 cell line growth inhibition; details: second compound 0.316 µM; first compound 3 µM; stronger effect = lower value;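 note: spheroids exposed to agents for seven days before readout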
Recorded viability, T/C for the following molecules
Measurement Label: viability, T/C (%)

1. NS(=O)(=O)OCC1CC(n2ccc3c(NC4CCc5ccccc54)ncnc32)CC1O (centres undefined) + NC1CC1c1ccc(-c2cccc(O)c2)cc1 = 14.3
2. Nc1ccccc1NC(=O)c1ccc(CNC(=O)OCc2cccnc2)cc1 + NC1CC1c1ccc(-c2cccc(O)c2)cc1 = 25.8
3. O=C(C=Cc1cccc(S(=O)(=O)Nc2ccccc2)c1)NO + NC1CCC(NC2CC2c2ccccc2)CC1 = 5.39
4. O=C(C=Cc1cccc(S(=O)(=O)Nc2ccccc2)c1)NO + NC1CC1c1ccc(-c2cccc(O)c2)cc1 = 7.18
